- assay.notes: CD (circular dichroism) spectroscopy of α-helix structure
- Type: physicochemical
- condition.info: Table 13; cyclic peptide complexes
measured.property: [θ]222/[θ]208

WAUAUAUAUAU(PEG2)5 [Example 99] :: 0.93
WAUAUAUAUAUGHHHHHHHHHHGRGDRGDRGDG [Example 105] :: 0.38
WAUAUAUAUAUAUAU(PEG2)5 [Example 101] :: 1.01

[a] WAUAUAUAUAUAUAUAUAU(PEG2)5 [Example 103]
[b] WAUAUAUAUAUAUAUGHHHHHHHHHHGRGDRGDRGDG [Example 107]
## Input Returns the identifier with the smallest measured [θ]222/[θ]208 among a and b . Respond with the label that goes with your answer.
## Output b
(b: 0.71, a: 1.21)

[P] WAUAUAUAUAUAUAUAUAUGHHHHHHHHHHGRGDRGDRGDG [Example 109]
[Q] WAUAUAUAUGHHHHHHHHHHGRGDRGDRGDG [Example 104]
## Input Returns the identifier with the smallest measured [θ]222/[θ]208 among P and Q . Respond with the label that goes with your answer.
## Output Q

[a] WAUAUAUAUAUAUGHHHHHHHHHHGRGDRGDRGDG [Example 106]
[b] WAUAUAUAUAUAU(PEG2)5 [Example 100]
## Input Quick check, higher [θ]222/[θ]208 between a and b ? Respond with the label that goes with your answer.
## Output b
(b: 0.95, a: 0.65)

###

- assay.notes: AFM analysis of self-assembled peptide complexes
- Assay type: physicochemical
- condition.info: Table 12; self-assembled structure, 25 μM in distilled water
- Procedure: AFM was performed using an NX10 system (Park Systems, Korea) in a non-contact mode with PPP-NCHR AFM probes (Nanosensors, Switzerland). The DNA concentration ranged from 1 to 30 ng/μL and the peptide concentration ranged from 1 to 32 μM (in H2O). 2 μL of the sample solution was cast onto a freshly cleaved mica surface and dried. The data obtained by the SmartScan program (Park Systems, Korea) was analyzed using the XEI program (Park Systems, Korea). […]
Non-standard residues stand in square brackets, D forms with d. No end group written: not given here. Aib = CC(C)(N)C(=O)O
measured.property: AFM morphology

RRRAUAUAUAUAUAUAUAUAUAUA(PEG8)2 [Example 62] :: Vesicle
RRAUAUAUAUAUAUAUAUAUAUAGRGDRGDRGDG (RRA[Aib]A[Aib]A[Aib]A[Aib]A[Aib]A[Aib]A[Aib]A[Aib]A[Aib]A[Aib]AGRGDRGDRGDG) [Example 68] :: Vesicle

###

- assay.notes: CD (circular dichroism) spectroscopy of α-helix structure
- Assay type: physicochemical
- condition.info: Table 13; cyclic peptide complexes
measured.property: [θ]222/[θ]208

(PEG2)5RRRRRR(PEG2)5WAUAUAUAUAUAUAUAU [Example 111] :: 0.95
WAUAUAUAUAUAUAUAU(PEG2)5RGDRGD(PEG2)5 [Example 110] :: 1.06
WAUAUAUAUAUAUAUAUGHHHHHHHHHHGRGDRGDRGDG [Example 108] :: 0.83

Source listed as patent US20240424134A1.
